details: in ethanol, 298.15 K
reported.property: solubility (mole fraction)

P = N[C@@H](Cc1c[nH]c2ccccc12)C(=O)O
Q = N[C@@H](Cc1cnc[nH]1)C(=O)O
Endpoint returns whichever of P and Q has the numerically higher solubility (mole fraction). Mark your answer with the label of the selected entry. P
(P: 0.000209, Q: 2.8e-05)

----------
conditions: in water, 288.15 K
reported.property: solubility (mole fraction)

P = N[C@@H](Cc1c[nH]c2ccccc12)C(=O)O
Q = N[C@@H](Cc1cnc[nH]1)C(=O)O
Of the pair P and Q , name the member with the lesser recorded solubility (mole fraction). Mark your answer with the label of the selected entry. P

----------
conditions: in water, 308.15 K
reported.property: solubility (mole fraction)

1 = N[C@@H](Cc1cnc[nH]1)C(=O)O
2 = N[C@@H](Cc1c[nH]c2ccccc12)C(=O)O
Endpoint returns whichever of 1 and 2 has the numerically higher solubility (mole fraction). Mark your answer with the label of the selected entry. 1

----------
conditions: in water, 303.15 K
reported.property: solubility (mole fraction)

a = N[C@@H](Cc1cnc[nH]1)C(=O)O
b = N[C@@H](Cc1c[nH]c2ccccc12)C(=O)O
Of the pair a and b , name the member with the lesser recorded solubility (mole fraction). Mark your answer with the label of the selected entry. b
(b: 0.00125, a: 0.00515)

Recorded values, source BigSolDB 2.1.
